system: THLE-3 liver cells; experiment: Liver cell viability assay (Alamar Blue); conditions: read-out: Human Cell Viability CC50, Liver (THLE-3); THLE-3 liver cells, Alamar Blue, 48 h
measured-parameter: CC50 (µM)
Only the number, expressed in µM, is required.

// sample O=C(Nc1ccccc1)c1cc(Br)cc(Br)c1O [Compound 13, 3,5-Dibromo-2-hydroxy-N-phenylbenzamide] , its CC50 was 25

----------
test system: Methicillin resistant S. aureus (MRSA) (ATCC BAA-44); assay: Bacterial proliferation assay, MRSA; format: cell-based, Staphylococcus aureus; conditions: Staphylococcus aureus, read-out: Bacterial Proliferation EC50 S. aureus Resistant
pEC50: −log10 of the molar value.
# binarize pEC50: threshold 6 inclusive, high side True, low side False

Problem: Is pEC50 at least 6? Consider `O=C(Nc1ccc(Sc2nc3ccccc3s2)c(Cl)c1)c1cc(Br)ccc1O`
Result: True

Problem: Is pEC50 at least 6? Consider `O=C(Nc1cccc(Cl)c1)c1cc(Br)ccc1O`
Result: True

Problem: Is pEC50 at least 6? Consider `O=C(Nc1ccc(Sc2nc3ccccc3s2)c(Cl)c1)c1cc(Br)cc(Br)c1O`
Result: True

Problem: Is pEC50 at least 6? Consider O=C(Nc1ccccc1)c1cc(Br)cc(Br)c1O [Compound 13, 3,5-Dibromo-2-hydroxy-N-phenylbenzamide]
Result: False

Problem: Is pEC50 at least 6? Consider `O=C(Nc1ccc(Sc2nc3ccccc3s2)cc1)c1cc(Br)cc(Br)c1O`
Result: True

Problem: Is pEC50 at least 6? Consider `O=C(Nc1ccc(Sc2nc3ccccc3s2)cc1)c1cc(Br)ccc1O`
Result: True

Problem: Is pEC50 at least 6? Consider O=C(Nc1ccccc1)c1ccccc1O [Compound 16, 2-Hydroxy-N-phenylbenzamide]
Result: False

Problem: Is pEC50 at least 6? Consider CN[C@H](CC(C)C)C(=O)N[C@H]1C(=O)N[C@@H](CC(N)=O)C(=O)N[C@H]2C(=O)N[C@H]3C(=O)N[C@H](C(=O)N[C@H](C(=O)O)c4cc(O)cc(O)c4-c4cc3ccc4O)[C@H](O)c3ccc(c(Cl)c3)Oc3cc2cc(c3O[C@@H]2O[C@H](CO)[C@@H](O)[C@H](O)[C@H]2O[C@H]2C[C@](C)(N)[C@H](O)[C@H](C)O2)Oc2ccc(cc2Cl)[C@H]1O [Vancomycin, vancomycin, reference compound]
Result: True
